- target-entity: human serum albumin (HSA) (Homo sapiens, UniProt P02768)
- Construct: purchased Sigma–Aldrich Co
- Sequence (P02768 25-609): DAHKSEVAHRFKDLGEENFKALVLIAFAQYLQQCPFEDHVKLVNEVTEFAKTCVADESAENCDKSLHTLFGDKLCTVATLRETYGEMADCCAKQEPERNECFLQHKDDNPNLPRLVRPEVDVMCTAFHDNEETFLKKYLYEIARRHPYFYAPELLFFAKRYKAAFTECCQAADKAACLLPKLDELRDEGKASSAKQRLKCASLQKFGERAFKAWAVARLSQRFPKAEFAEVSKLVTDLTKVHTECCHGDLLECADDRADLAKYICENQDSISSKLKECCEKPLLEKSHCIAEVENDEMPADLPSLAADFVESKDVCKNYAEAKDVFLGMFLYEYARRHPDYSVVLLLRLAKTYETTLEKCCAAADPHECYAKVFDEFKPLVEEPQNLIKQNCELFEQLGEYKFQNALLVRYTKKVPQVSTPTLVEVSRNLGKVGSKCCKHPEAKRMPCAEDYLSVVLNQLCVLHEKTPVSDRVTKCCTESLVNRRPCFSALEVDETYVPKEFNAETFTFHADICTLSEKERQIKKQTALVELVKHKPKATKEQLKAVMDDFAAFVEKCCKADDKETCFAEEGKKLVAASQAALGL
- assay-overview: Albumin binding by tryptophan fluorescence quenching (HSA)
- measurement-conditions: HSA; from Stern–Volmer plots, τo 10^-8 s
I'd be grateful if you could share measured HSA-quenching constant kq for these entries.

Record O=Cc1cc(F)ccc1[O-].[Cl-].[Cu+2].c1ccc(Nc2ccccn2)nc1 [Complex 2, [Cu(5–F–salo)(bipyam)Cl]] , field HSA-quenching constant kq: 6.27 (±0.21) × 10^12 M^−1 s^−1

Record O=Cc1cc(F)ccc1[O-].O=Cc1cc(F)ccc1[O-].[Cu+2] [Complex 1, [Cu(5–F–salo)2]] , field HSA-quenching constant kq: 4.37 (±0.18) × 10^12 M^−1 s^−1

Record O=Cc1cc(F)ccc1[O-].O=[N+]([O-])[O-].[Cu+2].c1cnc2c(c1)ccc1cccnc12 [Complex 4, [Cu(5–F–salo)(phen)(NO3)]] , field HSA-quenching constant kq: 8.63 (±0.33) × 10^12 M^−1 s^−1

Record CO.Cc1ccc2ccc3ccc(C)nc3c2n1.O=Cc1cc(F)ccc1[O-].[Cl-].[Cu+2] [Complex 3, [Cu(5–F–salo)(neoc)Cl].CH3OH] , field HSA-quenching constant kq: 1.25 (±0.05) × 10^13 M^−1 s^−1

Record O=Cc1cc(F)ccc1[O-].O=[N+]([O-])[O-].[Cu+2].c1ccc(-c2ccccn2)nc1 [Complex 5, [Cu(5–F–salo)(bipy)(NO3)]] , field HSA-quenching constant kq: 3.01 (±0.10) × 10^12 M^−1 s^−1
